src = ChEMBL document CHEMBL4049411

- experimentalDetails: AUC in Wistar rat at 10 mg/kg administered via oral gavage after 24 hrs by LC-MS/MS analysis
- Type: ADME, organism-based
- Set-up: dose 10 mg/kg, time < 24 hr, route oral
- measurementParameters: in vivo
assayEndpoint: AUC at 24 h (ng·h/mL)
Express your answer in ng·h/mL, writing the number without its unit.

q: // query AUC at 24 h value for entry CC(=O)Oc1c(C)c(-c2ccc(N3CCC(F)(F)C3)cc2)nc2cc(F)cc(F)c12
a: 12300

====

- experimentalDetails: Intrinsic clearance in rat hepatocytes assessed per million cells
- Assay type: ADME, cell-based, Hepatocyte
- measurementParameters: read-out: CLH
Binning rule for recorded hepatocyte CLint: class A (below 50 µL/min/1e6 cells), class B (50 µL/min/1e6 cells to below 200 µL/min/1e6 cells), class C (200 µL/min/1e6 cells or more)

smilesrepr=Cc1c(-c2ccc(N3CCC[C@H](C)C3)cc2)[nH]c2cc(F)cc(F)c2c1=O class="class B"
smilesrepr=Cc1c(-c2ccc(N3CC[C@H](F)C3)cc2)[nH]c2cc(F)cc(F)c2c1=O class="class B"
smilesrepr=Cc1c(-c2ccc(N3CCC[C@@H](C)C3)cc2)[nH]c2cc(F)cc(F)c2c1=O class="class B"

q: Please let me know in which category the item Cc1c(-c2ccc(N3CC[C@@H](F)C3)cc2)[nH]c2cc(F)cc(F)c2c1=O belongs.
a: class B

q: Same question for Cc1c(-c2ccc(N3CCC(F)(F)C3)cc2)[nH]c2cc(F)cc(F)c2c1=O please.
a: class B

q: Same question for Cc1c(-c2ccc(N3CCC[C@@H]3CO)cc2)[nH]c2cc(F)cc(F)c2c1=O please.
a: class A

q: Same question for COc1cc2[nH]c(-c3ccc(N4CCCCC4)cc3)c(C)c(=O)c2cc1F please.
a: class C

q: Same question for Cc1c(-c2ccc(N3CCCCCC3)cc2)[nH]c2cc(F)cc(F)c2c1=O please.
a: class C

q: Same question for Cc1c(-c2ccc(N3CCC[C@H]3CO)cc2)[nH]c2cc(F)cc(F)c2c1=O please.
a: class A

====

- experimentalDetails: Inhibition of replicating Mycobacterium tuberculosis H37Rv NDH assessed as cell growth inhibition after 7 days by MABA method
- measurementParameters: 168 h
Label label 1 when IC50 is strictly below 1000 nM; otherwise label label 0.

Recorded results for 5 compounds are shown here.
smilesrepr=Cc1c(-c2ccc(N3CC(F)(F)C3)cc2)[nH]c2cc(F)cc(F)c2c1=O class="label 0"
smilesrepr=Cc1c(-c2ccc(N3CCC[C@H]3COCc3ccccc3)cc2)[nH]c2cc(F)cc(F)c2c1=O class="label 1"
smilesrepr=Cc1c(-c2ccc(N3CCN(C)CC3)cc2)[nH]c2cc(F)cc(F)c2c1=O class="label 0"
smilesrepr=Cc1c(-c2ccc(N3CCC(F)CC3)cc2)[nH]c2ccccc2c1=O class="label 0"
smilesrepr=Cc1c(-c2ccc(N3CCC[C@@H]3C(=O)NC(C)(C)C)cc2)[nH]c2cc(F)cc(F)c2c1=O class="label 1"

q: For this compound, is IC50 lower than 1000 nM? Cc1c(-c2ccc(N3CCCCC3)cc2)[nH]c2cc(F)cc(F)c2c1=O
a: label 1

q: Same question for Cc1c(-c2ccc(N3CC(C)(O)C3)cc2)[nH]c2cc(F)cc(F)c2c1=O please.
a: label 0

====

- experimentalDetails: Cmax in Wistar rat at 50 mg/kg administered via oral gavage after 24 hrs by LC-MS/MS analysis
- Format: ADME, organism-based
- Set-up: dose 50 mg/kg, route oral
- measurementParameters: in vivo
assayEndpoint: Cmax (ng/mL)
Express your answer in ng/mL, writing the number without its unit.

q: // query Cmax value for entry CC(=O)Oc1c(C)c(-c2ccc(N3CCC(F)(F)C3)cc2)nc2cc(F)cc(F)c12
a: 4000

====

- experimentalDetails: Intrinsic clearance in human microsomes
- Type: ADME, Microsome
- measurementParameters: read-out: CLH
microsomal CLint: recorded values

q: // query microsomal CLint value for entry COc1cc2[nH]c(-c3ccc(N4CCCCC4)cc3)c(C)c(=O)c2cc1F
a: > 300 µL/min/mg

q: Same question for Cc1c(-c2ccc(N3CCCCCC3)cc2)[nH]c2cc(F)cc(F)c2c1=O please.
a: > 300 µL/min/mg

q: Same question for Cc1c(-c2ccc(N3CC[C@H](F)C3)cc2)[nH]c2cc(F)cc(F)c2c1=O please.
a: 197 µL/min/mg

q: Same question for Cc1c(-c2ccc(N3CCC[C@H]3CO)cc2)[nH]c2cc(F)cc(F)c2c1=O please.
a: > 300 µL/min/mg

q: Same question for Cc1c(-c2ccc(N3CCC(F)(F)C3)cc2)[nH]c2cc(F)cc(F)c2c1=O please.
a: 9.52 to 89.7 µL/min/mg

q: Same question for COc1ccc2c(=O)c(Cl)c(-c3ccc(N4CCCCC4)cc3)[nH]c2c1 please.
a: > 300 µL/min/mg

q: Same question for Cc1c(-c2ccc(N3CCC[C@H](C)C3)cc2)[nH]c2cc(F)cc(F)c2c1=O please.
a: > 300 µL/min/mg

q: Same question for Cc1c(-c2ccc(N3CCC[C@@H](C)C3)cc2)[nH]c2cc(F)cc(F)c2c1=O please.
a: > 300 µL/min/mg

q: Same question for Cc1c(-c2ccc(N3CC[C@@H](F)C3)cc2)[nH]c2cc(F)cc(F)c2c1=O please.
a: 175 µL/min/mg

q: Same question for Cc1c(-c2ccc(N3CCC[C@@H]3CO)cc2)[nH]c2cc(F)cc(F)c2c1=O please.
a: > 300 µL/min/mg

====

- experimentalDetails: Metabolic stability in mouse liver microsomes assessed as half life for metabolic turnover at 0.1 to 10 uM preincubated for 60 mins in presence of NADPH measured up to 60 mins by mass spectroscopic analysis
- Type: ADME, microsome
half-life at up to 10 µM: recorded values
Express your answer in min, writing the number without its unit.

Would you please look over these solved cases?
compound=Cc1c(-c2ccc(N3CC[C@@H](F)C3)cc2)[nH]c2cc(F)cc(F)c2c1=O assayendpoint="half-life at up to 10 µM" val=4.4
compound=Cc1c(-c2ccc(N3CCCCC3)cc2)[nH]c2cc(F)cc(F)c2c1=O assayendpoint="half-life at up to 10 µM" val=8.27
compound=Cc1c(-c2ccc(N3CCC(F)(F)C3)cc2)[nH]c2cc(F)cc(F)c2c1=O assayendpoint="half-life at up to 10 µM" val=115
compound="Cc1c(-c2ccc(N3CCCC(C)C3)cc2)[nH]c2cc(F)cc(F)c2c1=O (stereo unspecified)" assayendpoint="half-life at up to 10 µM" val=22.3

q: // query half-life at up to 10 µM value for entry Cc1c(-c2ccc(N3CCC[C@H](C)C3)cc2)[nH]c2cc(F)cc(F)c2c1=O
a: 7.65

====

pIC50: recorded values
- experimentalDetails: Inhibition of replicating Mycobacterium tuberculosis H37Rv NDH assessed as cell growth inhibition after 7 days by MABA method
- measurementParameters: 168 h
When answering, recall that pIC50 equals minus log10 of the concentration in mol/L, and write that number alone.

smilesrepr=Cc1c(-c2ccc(N3CCN(Cc4ccccc4)CC3)cc2)[nH]c2ccccc2c1=O assayendpoint=pIC50 val=5.24

Now, please, on to the next compound.
q: // query pIC50 value for entry Cc1c(-c2ccc(N3CC[C@@H](F)C3)cc2)[nH]c2cc(F)cc(F)c2c1=O
a: 6.64

====

- experimentalDetails: Metabolic stability in rat liver microsomes assessed as half life for metabolic turnover at 0.1 to 10 uM preincubated for 60 mins in presence of NADPH measured up to 60 mins by mass spectroscopic analysis
- Type: ADME, microsome
half-life at up to 10 µM: recorded values
Express your answer in min, writing the number without its unit.

compound=Cc1c(-c2ccc(N3CC[C@@H](F)C3)cc2)[nH]c2cc(F)cc(F)c2c1=O assayendpoint="half-life at up to 10 µM" unitofmeasure=min val=10.6

q: // query half-life at up to 10 µM value for entry Cc1c(-c2ccc(-n3cccc3)cc2)[nH]c2cc(F)cc(F)c2c1=O
a: 30.1

q: Same question for Cc1c(-c2ccc(N3CCCCC3)cc2)[nH]c2cc(F)cc(F)c2c1=O please.
a: 8.3

====

- experimentalDetails: Inhibition of replicating Mycobacterium tuberculosis H37Rv NDH assessed as cell growth inhibition after 7 days by MABA method
- measurementParameters: 168 h
assayEndpoint: IC50

compound=Cc1c(-c2ccc(N3CCC[C@@H]3CO)cc2)[nH]c2cc(F)cc(F)c2c1=O assayendpoint=IC50 val="0.32 µM"
compound=Cc1c(-c2cccc(N3CCCCC3)c2)[nH]c2cc(F)cc(F)c2c1=O assayendpoint=IC50 val="> 10 µM"
compound=Cc1c(-c2ccc(N3CCC[C@@H]3C(=O)N3CCC(F)CC3)cc2)[nH]c2cc(F)cc(F)c2c1=O assayendpoint=IC50 val="> 10 µM"

q: // query IC50 value for entry COc1ccc2c(=O)c(C)c(-c3ccc(-n4cc(F)c(F)c4)cc3)[nH]c2c1
a: > 10 µM

q: Same question for Cc1c(-c2ccc(-n3cccc3)cc2F)[nH]c2cc(F)cc(F)c2c1=O please.
a: > 10 µM

q: Same question for Cc1c(-c2ccc(N3CCCCC3)cc2)[nH]c2ccc(F)cc2c1=O please.
a: 1.83 µM

q: Same question for Cc1c(-c2ccc(N3CCC4(CC3)CC4)cc2)[nH]c2cc(F)cc(F)c2c1=O please.
a: > 10 µM

q: Same question for COc1ccc2c(=O)c(C)c(-c3ccc(N4CCC(F)CC4)cc3)[nH]c2c1 please.
a: 1.32 µM
